# targetDesc: human GR (Homo sapiens, UniProt P04150)
# Sequence (P04150 whole entry): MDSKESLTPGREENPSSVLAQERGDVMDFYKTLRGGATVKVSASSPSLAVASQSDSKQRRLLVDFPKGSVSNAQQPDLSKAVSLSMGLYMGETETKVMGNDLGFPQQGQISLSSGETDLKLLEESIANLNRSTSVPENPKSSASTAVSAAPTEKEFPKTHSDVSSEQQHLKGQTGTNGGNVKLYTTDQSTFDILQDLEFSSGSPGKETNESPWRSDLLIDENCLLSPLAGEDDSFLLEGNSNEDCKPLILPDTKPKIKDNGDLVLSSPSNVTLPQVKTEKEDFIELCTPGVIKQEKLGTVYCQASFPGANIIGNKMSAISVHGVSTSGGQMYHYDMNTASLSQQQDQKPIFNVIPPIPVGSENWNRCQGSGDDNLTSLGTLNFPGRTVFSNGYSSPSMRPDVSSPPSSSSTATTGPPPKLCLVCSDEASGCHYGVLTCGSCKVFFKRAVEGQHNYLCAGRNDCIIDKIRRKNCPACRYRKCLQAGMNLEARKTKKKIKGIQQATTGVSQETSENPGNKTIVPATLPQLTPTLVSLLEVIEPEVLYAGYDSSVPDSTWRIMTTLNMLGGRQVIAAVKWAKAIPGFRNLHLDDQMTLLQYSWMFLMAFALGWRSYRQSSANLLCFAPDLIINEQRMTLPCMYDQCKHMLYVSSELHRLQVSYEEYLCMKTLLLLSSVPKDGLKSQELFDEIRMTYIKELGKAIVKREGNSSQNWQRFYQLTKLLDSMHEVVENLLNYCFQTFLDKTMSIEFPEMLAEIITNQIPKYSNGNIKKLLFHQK
# assayMethodText: Transrepression Assay (GITAR), TNFα-β-lactamase reporter in U937 cells
# Format: cell-based
# Design: U937 cells contain an endogenous glucocorticoid receptor (GR); endogenous in cells; host or cells: U937 cells stably transfected with the TNF-alpha promoter/beta-lactamase reporter
# conditionSet: U-937, U937 cells; maximum activity; read-out: Transrepression U937 Cells GITAR Emax
measureName: Emax (%)

Example entries and their recorded answers appear below.
Cn1cc(S(=O)(=O)N(CC(O)c2ccccn2)C[C@H]2CCC3=Cc4c(cnn4-c4ccc(F)cc4)C[C@@]32C)c(C(F)(F)F)n1 (stereo partly shown) [Example 157] : 93.6
C[C@]12Cc3cnn(-c4ccc(F)cc4)c3C=C1CC[C@@H]2CN(CC1(OS(=O)(=O)CC(F)(F)F)CC1)S(=O)(=O)CC(F)(F)F [Example 136] : 101

[1] C[C@]12Cc3cnn(-c4ccc(F)cc4)c3C=C1CC[C@@H]2CN(CCCc1ccccc1)S(=O)(=O)c1ccccc1F [Example 195]
[2] C[C@]12Cc3cnn(-c4ccc(F)cc4)c3C=C1CC[C@@H]2CN(CCc1ccccc1F)S(=O)(=O)C1CC1 [Example 101]
Input: Of 1 versus 2 , which is the one with smaller reported Emax? State your choice using its label.
Output: 1

[A] COc1ccccc1CCN(C[C@H]1CCC2=Cc3c(cnn3-c3ccc(F)cc3)C[C@@]21C)S(=O)(=O)c1ccccc1F [Example 90]
[B] Cn1nc(C(F)(F)F)cc1-c1ccc(S(=O)(=O)N(CCO)C[C@H]2CCC3=Cc4c(cnn4-c4ccc(F)cc4)C[C@@]32C)s1 [Example 67]
Input: Between A and B , which one shows the larger Emax value? In your reply, give the label of the chosen option.
Output: A

[I] C[C@]12Cc3cnn(-c4ccc(F)cc4)c3C=C1CC[C@@H]2CN(CC#N)S(=O)(=O)Cc1ccccc1 [Example 48]
[II] C[C@]12Cc3cnn(-c4ccccc4)c3C=C1CC[C@@H]2CN(CCc1ccccn1)S(=O)(=O)CC(F)(F)F [Example 138]
Input: Which record shows the lower Emax: the first, I , or the second, II ? Write down the label attached to your selection.
Output: I
(I: 24.5%, II: 83.7%)

* * *

# targetDesc: human GR (Homo sapiens)
# assayMethodText: Transrepression Assay (GITAR), TNFα-β-lactamase reporter in U937 cells
# Format: cell-based
# Design: U937 cells contain an endogenous glucocorticoid receptor (GR); endogenous in cells; host or cells: U937 cells stably transfected with the TNF-alpha promoter/beta-lactamase reporter
# conditionSet: U937 cells; inflection point; read-out: Transrepression U937 Cells GITAR IP
measureName: EC50 (nM)

[P] C[C@]12Cc3cnn(-c4ccc(F)cc4)c3C=C1CC[C@@H]2CN(CC1CCCO1)S(=O)(=O)Cc1cccc(C(F)(F)F)c1 (stereo partly drawn) [Example 110]
[Q] CCCS(=O)(=O)N(CC(O)C(F)F)C[C@H]1CCC2=Cc3c(cnn3-c3ccc(F)cc3)C[C@@]21C (stereo partly drawn) [Example 155]
Input: Consider entries P and Q . Which has the numerically lower EC50? Kindly give the label for the entry you pick.
Output: P

[A] COc1ccccc1CCN(C[C@H]1CCC2=Cc3c(cnn3-c3ccc(F)cc3)C[C@@]21C)S(=O)(=O)Cc1cccc(C(F)(F)F)c1 [Example 119]
[B] C[C@]12Cc3cnn(-c4ccc(F)cc4)c3C=C1CC[C@@H]2CN(CCO)S(=O)(=O)c1ccccc1C(F)(F)F [Example 70]
Input: I would appreciate it if you could say which entry, A or B , has the lower EC50 value. # respond with the chosen item's label
Output: A
(A: 605 nM, B: 1010 nM)
